kon for assorted binders
- tgt: T1, recombinant biotinylated rat PAR2 extracellular residues 1-75, N-terminal AviTag, C-terminal Flag and poly … (rat, UniProt Q63645 26-75, not fully specified; biotin on the AviTag (enzymatic biotinylation))
- T1 construct: range 1-75; not shown: N-terminal AviTag (Avidity LLC); C-terminal Flag and poly Histidine tags
- T1 chain (looked up): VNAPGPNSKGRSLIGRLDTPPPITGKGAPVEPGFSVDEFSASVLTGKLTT
- assay-remarks: Biacore SPR 25 C, pH 7.4
Write the answer as a number in M⁻¹ s⁻¹, unit excluded.

[[record]]
binder = "PaB670129 Fab (Fab, V domains shown, Fab; also called ZZ1RUE-F02) VH: EVQLLESGGGLVQPGGSLRLSCAASGFTFSSYAMNWVRQAPGKGLEWVSTISYHGSHISYHDSVHHRFTISRDNSKNTLYLQMNSLRAEDTAVYYCARIHHDPMDVWGQGTLVTVSS VL: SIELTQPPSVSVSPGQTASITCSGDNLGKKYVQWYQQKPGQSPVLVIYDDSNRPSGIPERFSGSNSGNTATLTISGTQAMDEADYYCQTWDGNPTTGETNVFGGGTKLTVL"
recorded_value = "8.82e+06"

[[record]]
binder = "PaB670128 Fab (Fab, V domains shown, Fab; also called ZZ1RUE-A01) VH: EVQLLESGGGLVQPGGSLRLSCAASGFTFSSYAMNWVRQAPGKGLEWVSTISYHGHHISYADSHHHRFTISRDNSKNTLYLQMNSLRAEDTAVYYCARIHHDPMDVWGQGTLVTVSS VL: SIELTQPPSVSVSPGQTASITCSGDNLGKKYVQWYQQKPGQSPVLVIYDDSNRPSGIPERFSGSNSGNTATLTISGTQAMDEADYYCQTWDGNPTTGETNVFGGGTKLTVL"
recorded_value = "6.49e+06"

[[record]]
binder = "PaB670084 Fab (Fab, V domains shown, Fab; also called ZZ1PXA-A05) VH: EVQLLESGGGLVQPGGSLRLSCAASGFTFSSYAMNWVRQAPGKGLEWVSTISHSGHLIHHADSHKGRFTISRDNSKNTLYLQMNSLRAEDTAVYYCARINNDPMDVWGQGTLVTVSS VL: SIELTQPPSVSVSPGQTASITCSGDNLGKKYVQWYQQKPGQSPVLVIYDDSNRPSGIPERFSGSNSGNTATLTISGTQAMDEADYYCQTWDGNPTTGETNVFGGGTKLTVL"
recorded_value = "6.83e+06"

[[record]]
binder = "PaB670048 Fab (Fab, V domains shown, Fab; also called ZZ1KX4-E11) VH: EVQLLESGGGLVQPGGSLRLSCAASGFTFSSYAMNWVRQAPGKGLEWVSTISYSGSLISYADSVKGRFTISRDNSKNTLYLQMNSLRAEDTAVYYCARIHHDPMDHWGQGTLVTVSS VL: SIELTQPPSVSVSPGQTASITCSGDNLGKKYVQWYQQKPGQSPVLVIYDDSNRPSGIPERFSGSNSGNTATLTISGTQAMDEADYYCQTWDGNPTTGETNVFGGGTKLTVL"
recorded_value = "5.24e+06"

[[record]]
binder = "PaB670120 Fab (Fab, V domains shown, Fab; also called ZZ1RUC-C11) VH: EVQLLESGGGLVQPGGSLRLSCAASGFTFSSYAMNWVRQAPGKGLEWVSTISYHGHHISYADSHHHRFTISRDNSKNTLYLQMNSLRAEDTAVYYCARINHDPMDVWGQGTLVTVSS VL: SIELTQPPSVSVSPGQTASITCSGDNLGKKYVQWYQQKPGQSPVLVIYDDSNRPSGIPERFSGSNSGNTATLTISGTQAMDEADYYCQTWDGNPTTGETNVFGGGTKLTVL"
recorded_value = "5.62e+06"

[[record]]
binder = "Par0067 Fab (Fab, V domains shown, Fab; also called ZZ15D2-D02) VH: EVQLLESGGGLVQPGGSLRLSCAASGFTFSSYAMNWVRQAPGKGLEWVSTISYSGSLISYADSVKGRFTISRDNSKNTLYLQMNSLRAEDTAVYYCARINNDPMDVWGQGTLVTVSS VL: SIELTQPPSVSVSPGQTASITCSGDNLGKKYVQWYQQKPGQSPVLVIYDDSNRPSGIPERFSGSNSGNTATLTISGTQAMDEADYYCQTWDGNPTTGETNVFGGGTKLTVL"
recorded_value = "5.16e+06"


Query: kon; subject: PaB670076 Fab (Fab, V domains shown, Fab; also called ZZ1NHH-F09) VH: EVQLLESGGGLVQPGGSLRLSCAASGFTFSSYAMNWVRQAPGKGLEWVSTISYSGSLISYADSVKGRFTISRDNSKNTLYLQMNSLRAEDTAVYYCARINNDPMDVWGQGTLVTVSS VL: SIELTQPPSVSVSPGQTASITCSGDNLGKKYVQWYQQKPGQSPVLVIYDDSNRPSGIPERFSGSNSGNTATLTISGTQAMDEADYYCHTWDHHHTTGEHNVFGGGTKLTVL
6.34e+06

Moving on to PaB670103 Fab (Fab, V domains shown, Fab; also called ZZ1RCX-C09) VH: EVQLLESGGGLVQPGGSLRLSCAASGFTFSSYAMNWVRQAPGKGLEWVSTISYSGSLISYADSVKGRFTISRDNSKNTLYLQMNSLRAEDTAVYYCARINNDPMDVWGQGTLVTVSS VL: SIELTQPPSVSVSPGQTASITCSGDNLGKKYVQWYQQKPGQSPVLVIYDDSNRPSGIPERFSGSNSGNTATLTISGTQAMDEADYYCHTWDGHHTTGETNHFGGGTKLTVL
3.04e+06

Moving on to PaB670136 Fab (Fab, V domains shown, Fab; also called ZZ1RUF-A01) VH: EVQLLESGGGLVQPGGSLRLSCAASGFTFSSYAMNWVRQAPGKGLEWVSTISYHGHHISYADSHHHRFTISRDNSKNTLYLQMNSLRAEDTAVYYCARIHHDPMDHWGQGTLVTVSS VL: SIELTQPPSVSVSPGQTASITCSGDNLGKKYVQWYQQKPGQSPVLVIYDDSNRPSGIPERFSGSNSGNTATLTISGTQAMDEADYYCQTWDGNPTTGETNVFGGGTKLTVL
7.57e+06

Entry source: patent US20180305450A1
